Reported IC50 at 72 h values are given for each entry in this list.
measurementDescription: Nephrotoxicity test, renal cytotoxicity by MTT method
Format: cell-based
conditionDetails: African green monkey
Where a SMILES comes first, the peptide text is derived from it. Bridges are numbered along the chain shown (N, C = ends). [ ]: non-standard residue; d: D form. The star is where a group is joined. Heptanoyl(6-Me) = CC(C)CCCCC(=O)*; Heptanoyl = CCCCCCC(=O)*; Dab = NCC[C@H](N)C(=O)O
Quick reminder: number only, in µg/mL, skip the unit.

Need IC50 at 72 h of CCCCCCC(=O)N[C@@H](CCN)C(=O)N[C@H](C(=O)N[C@@H](CCN)C(=O)N[C@H]1CCNC(=O)[C@H]([C@@H](C)O)NC(=O)[C@H](CCN)NC(=O)[C@H](CCN)NC(=O)[C@H](CC(C)C)NC(=O)[C@@H](Cc2ccccc2)NC(=O)[C@H](CCN)NC1=O)[C@@H](C)O [Compound 45] (Heptanoyl-[Dab]T[Dab][Dab][Dab][dF]L[Dab][Dab]T; lactam 4-C) , thanks. 160

Again, but for CC(C)CCCCC(=O)N[C@@H](CCN)C(=O)N[C@H](C(=O)N[C@@H](CCN)C(=O)N[C@H]1CCNC(=O)[C@H](CC(C)C)NC(=O)[C@H](CCN)NC(=O)[C@H](CCN)NC(=O)[C@H](CC(C)C)NC(=O)[C@@H](Cc2ccccc2)NC(=O)[C@H](CCN)NC1=O)[C@@H](C)O [Compound 128] ({Heptanoyl(6-Me)}-[Dab]T[Dab][Dab][Dab][dF]L[Dab][Dab]L; lactam 4-C) 30.1
